molecular target: UniProt Q06219; assay: Agonist activity at Nurr1 in mouse MN9D cells measured by NBRE-based luciferase reporter gene assay; format: cell-based
Sequence (Q06219 whole entry): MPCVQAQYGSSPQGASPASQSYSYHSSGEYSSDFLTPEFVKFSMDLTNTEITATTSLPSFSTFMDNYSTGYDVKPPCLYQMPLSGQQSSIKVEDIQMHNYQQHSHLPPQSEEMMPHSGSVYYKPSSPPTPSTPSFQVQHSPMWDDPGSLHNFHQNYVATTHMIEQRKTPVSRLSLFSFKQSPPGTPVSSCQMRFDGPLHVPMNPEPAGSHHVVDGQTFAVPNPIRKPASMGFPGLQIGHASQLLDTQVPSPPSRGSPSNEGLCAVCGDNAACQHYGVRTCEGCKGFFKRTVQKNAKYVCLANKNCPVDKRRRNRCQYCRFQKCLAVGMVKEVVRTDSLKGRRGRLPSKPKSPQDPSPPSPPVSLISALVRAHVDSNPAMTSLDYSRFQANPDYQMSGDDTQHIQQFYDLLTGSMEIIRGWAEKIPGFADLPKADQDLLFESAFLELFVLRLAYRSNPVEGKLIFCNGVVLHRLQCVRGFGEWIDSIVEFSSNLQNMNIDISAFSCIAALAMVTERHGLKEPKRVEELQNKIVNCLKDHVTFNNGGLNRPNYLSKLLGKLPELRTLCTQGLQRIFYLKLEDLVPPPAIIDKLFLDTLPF
recorded-metric: EC50 (µM)

1. CCCCC[C@H](O)/C=C/[C@H]1[C@H](O)CC(=O)[C@@H]1CCCCCCC(=O)O
2. CCCCC[C@H](O)/C=C/[C@H]1C=CC(=O)[C@@H]1CCCCCCC(=O)O
Query: Could you tell me which of 1 and 2 has the lower EC50 reading? Let me know the label of the one you choose.
Reply: 1
(1: 3 µM, 2: 5 µM)

* * *

target: Nuclear receptor subfamily 4 group A member 2 (Homo sapiens); assay: Agonist activity at Nurr1 in human SK-N-BE(2)-C cells measured by Gal4-based luciferase reporter gene assay; type: cell-based
recorded-metric: EC50 (µM)

I. CCCCC[C@H](O)/C=C/[C@H]1C=CC(=O)[C@@H]1CCCCCCC(=O)O
II. CCCCC[C@H](O)/C=C/[C@H]1[C@H](O)CC(=O)[C@@H]1CCCCCCC(=O)O
Query: Higher EC50 between I and II ? Give the label under which the chosen entry appears.
Reply: I

* * *

target: Nuclear receptor subfamily 4 group A member 2 (Homo sapiens, UniProt P43354); test: Agonist activity at human Nurr1 measured by Gal4-Nurr1 hybrid reporter gene assay
Sequence (P43354 whole entry, the tested form may be a part): as the sequence (Q06219 whole entry) above, with S131T, S134G, D354E counted along it
recorded-metric: EC50 (µM)
Reply with just the number (in µM).

Query: Identify the reported EC50 for the following entry. `Fc1ccc(-c2c[nH]c3ccccc23)cc1`
Reply: 7.7

* * *

biological target: Nuclear receptor subfamily 4 group A member 2 (Homo sapiens); assay: Agonist activity at Nurr1 in human SK-N-BE(2)-C cells measured by NBRE-based luciferase reporter gene assay; assay type: cell-based
recorded-metric: EC50 (µM)

A. CCCCC[C@H](O)/C=C/[C@H]1[C@H](O)CC(=O)[C@@H]1CCCCCCC(=O)O [ALPROSTADIL]
B. CCCCC[C@H](O)/C=C/[C@H]1C=CC(=O)[C@@H]1CCCCCCC(=O)O [PROSTAGLANDIN A1]
Query: Pick one: A or B . Which has the bigger EC50 number? Label of pick, please.
Reply: B
(B: 5 µM, A: 3 µM)

* * *

What follows is a record of pKd for Nuclear receptor subfamily 4 group A member 2 (Homo sapiens, UniProt P43354).
FYI, pKd means -log10 of a concentration in mol per litre.

| structure-notation | number |
| --- | --- |
| CCCCCCCC/C=C\CCCCCCCC(=O)O | 4.30 |

Kindly review the next compound as well.
Query: Name the recorded pKd of `CCCCC/C=C\C/C=C\C/C=C\C/C=C\CCCC(=O)O` , assay system Nuclear receptor subfamily 4 group A member 2 (Homo sapiens, UniProt P43354).
Reply: 4.30

* * *

molecular target: Nuclear receptor subfamily 4 group A member 2 (Rattus norvegicus, UniProt Q07917); assay: Agonist activity at Nurr1 in rat N27-A cells measured by Gal4-based luciferase reporter gene assay; assay type: cell-based
Sequence (Q07917 whole entry, the tested form may be a part): as the sequence (Q06219 whole entry) above, with S134G, P182R counted along it
recorded-metric: EC50 (µM)

1. CCCCC[C@H](O)/C=C/[C@H]1[C@H](O)CC(=O)[C@@H]1CCCCCCC(=O)O [ALPROSTADIL]
2. CCCCC[C@H](O)/C=C/[C@H]1C=CC(=O)[C@@H]1CCCCCCC(=O)O [PROSTAGLANDIN A1]
Query: Please compare: 1 and 2 . Report which one has the smaller EC50 value. Give the chosen item's label as your response.
Reply: 1
(1: 3 µM, 2: 5 µM)
